assay: yeast AGP1-GFP level changes, GLN3 branch – cell-based, multiplex flow cytometry, S. cerevisiae, primary screen (AID 1887); details: 3 h, at 10 µM, hits give high values;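 further: AGP1-GFP fusion strain of S. cerevisiae within a five-strain barcoded multiplex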
Results filed as inconclusive are left out.
metric-name: GFP response, % of DMSO (%)
Kindly provide the numeric value in % only, without the unit symbol.

Data point: "O=c1cc(-c2ccccc2)oc2cc(OCc3ccccc3)cc(O)c12" ; GFP response, % of DMSO = 85.9

Item: "CCCC(=O)O[C@]1(C(=O)COC(C)=O)CC[C@H]2[C@@H]3C[C@H](F)C4=CC(=O)C=C[C@]4(C)[C@@]3(F)[C@@H](O)C[C@@]21C" | GFP response, % of DMSO: 103

For record "CCCn1c(=O)c2[nH]c(C3CCCC3)nc2n(CCC)c1=O" the listed GFP response, % of DMSO is 88.7

Lookup result for COc1cc(C2Nc3ccccc3C(=O)N2c2ccccc2)ccc1O (centres undefined) ; measured GFP response, % of DMSO: 103

Lab book: GFP response, % of DMSO of "COc1ccc(C(Cl)=C(c2ccc(OC)cc2)c2ccc(OC)cc2)cc1" noted as 98

// recorded GFP response, % of DMSO for COc1ccc(C2C3=C(OC(C)=O)c4ccccc4C3=Nc3c2c(=O)n(C)c(=O)n3C)cc1 (centres undefined) : 103

Looking up "CCc1nc2ccccc2n1Cc1ccc(OC)c(OC)c1" , I found its GFP response, % of DMSO recorded as 109

get_value(item= "CC(C)CC(=O)NC(NC(=O)CC(C)C)c1cccc([N+](=O)[O-])c1" , readout=GFP response, % of DMSO) returns 100

# GFP response, % of DMSO of "C[C@]12CCC(=O)C=C1CC[C@@H]1[C@@H]2[C@@H](O)C[C@@]2(C)[C@H]1CC[C@]2(O)C(=O)CO" = 111

Source of measurements: PubChem BioAssay
